Below, each entry is listed alongside its reported TGI.
- System: SK-OV-3 ovarian
- ASSAY PROCEDURE: NCI tumour cell line growth inhibition, 48 h

Use these answered entries as a reference point.
Cc1[nH]c(C)c(CN(C)C)c1CN(C)C = > 100 µM
CC12OC(CC(O)C1O)n1c3ccccc3c3c4c(c5c6ccccc6n2c5c31)C(=O)N(CCN1CCOCC1)C4=O (configuration not stated) = 4.13 µM
COC(=O)[C@@H]1CN(C(=O)CCc2ccccc2)C(=O)N1 = > 100 µM

Param readout = TGI; param system = SK-OV-3 ovarian; param query = O=C(O)c1ccc2c(c1)C(=O)N(c1ccc(S(=O)(=O)c3ccc(N4C(=O)c5ccc(C(=O)O)cc5C4=O)cc3)cc1)C2=O ; response: value
> 100 µM

Same question for CC[C@@H](C)/C=C(C)/C=C/C(=O)c1c(O)c(-c2ccc(OC(=O)[C@@]34CC[C@@](C)(C(=O)O3)C4(C)C)cc2)cn(O)c1=O please.
> 50 µM

Same question for c1ccc2sc(SSSc3nc4ccccc4s3)nc2c1 please.
> 100 µM

Same question for C=C(C)[C@H]1CC[C@@]23O[C@@H]2[C@@H](C[C@@]2(C)CC(=O)[C@H](CC(=O)C1)O2)OC(=O)[C@@]12CC[C@H](C(=C)C)CC(=O)C[C@H]4O[C@](C)(CC4=O)C[C@@H](OC3=O)[C@@H]1O2 please.
> 100 µM

Same question for C=C1C(=O)O[C@H](c2ccoc2)C[C@@H]1[C@@]1(C)CCCC2(C)C(=O)OCC21 (some centres not stated) please.
> 100 µM

Same question for c1ccc(C2=NN2c2ccccc2)cc1 please.
> 100 µM

Same question for CSc1c(C#N)c(=O)n(N)c2c1c(C)nn2-c1ccccc1 please.
93.8 µM
